System: Escherichia coli TOP10
Assay: shrunken log2 fold change of peptide-encoding DNA abundance (4.5 h post-induction vs induction); higher = less antimicrobial activity (less host growth inhibition)
Conditions: time post-induction: 4.5 h; library: site-saturation at positions 5, 18, 19, 20
test readout: shrunken log2 fold change
Just the number, please.

Guide cases for shrunken log2 fold change, answers given:
RRIRQRPPRLPRPRPRPYALPRP = -0.0202
RRIRMRPPRLPRPRPRPGTNPRP = 1.55
RRIRYRPPRLPRPRPRPNAHPRP = -0.395

Consider the sequence RRIRFRPPRLPRPRPRPNETPRP and give its recorded shrunken log2 fold change.
-0.0424

Consider the sequence RRIRERPPRLPRPRPRPLWTPRP and give its recorded shrunken log2 fold change.
0.0667

Consider the sequence RRIRKRPPRLPRPRPRPLWAPRP and give its recorded shrunken log2 fold change.
0.452

Consider the sequence RRIRSRPPRLPRPRPRPRQVPRP and give its recorded shrunken log2 fold change.
0.109

Consider the sequence RRIRYRPPRLPRPRPRPHKMPRP and give its recorded shrunken log2 fold change.
-0.153

* * *

Tested on: Escherichia coli TOP10
Test: shrunken log2 fold change of peptide-encoding DNA abundance (4.5 h post-induction vs induction); higher = less antimicrobial activity (less host growth inhibition)
Settings: time post-induction: 4.5 h; library: site-saturation at positions 5, 18, 19, 20
Consider the reported shrunken log2 fold change of an entry and match it to a band in lower segment = under -0.2, middle segment = from -0.2 up to 0.2, upper segment = 0.2 and over

RRIRKRPPRLPRPRPRPKNLPRP = middle segment

Exercise: read the entry RRIRERPPRLPRPRPRPTMMPRP and state which class it falls under.
middle segment

Exercise: read the entry RRIRFRPPRLPRPRPRPKINPRP and state which class it falls under.
lower segment

* * *

Test system: Escherichia coli TOP10
Experiment: shrunken log2 fold change of peptide-encoding DNA abundance (4.5 h post-induction vs induction); higher = less antimicrobial activity (less host growth inhibition)
Conditions: time post-induction: 4.5 h; library: site-saturation at positions 5, 18, 19, 20
test readout: shrunken log2 fold change
Just the number, please.

Consider the sequence RRIRERPPRLPRPRPRPLPRPRP and give its recorded shrunken log2 fold change.
0.179

Consider the sequence RRIRARPPRLPRPRPRPVTDPRP and give its recorded shrunken log2 fold change.
-0.0398

Consider the sequence RRIRARPPRLPRPRPRPWSYPRP and give its recorded shrunken log2 fold change.
-0.0574

Consider the sequence RRIRDRPPRLPRPRPRPYLEPRP and give its recorded shrunken log2 fold change.
-0.0399

Consider the sequence RRIRNRPPRLPRPRPRPEPWPRP and give its recorded shrunken log2 fold change.
0.0625

* * *

# reported shrunken log2 fold change; entries follow
Test system: Escherichia coli TOP10
Assay: shrunken log2 fold change of peptide-encoding DNA abundance (4.5 h post-induction vs induction); higher = less antimicrobial activity (less host growth inhibition)
Details: time post-induction: 4.5 h; library: site-saturation at positions 5, 18, 19, 20
Just the number, please.

Guide cases for shrunken log2 fold change, answers given:
RRIRCRPPRLPRPRPRPQVFPRP = -0.13
RRIRQRPPRLPRPRPRPIWGPRP = -0.105
RRIRWRPPRLPRPRPRPILIPRP = -0.037
RRIRRRPPRLPRPRPRPHFTPRP = -0.0671
RRIRARPPRLPRPRPRPCWWPRP = 0.157

Consider the sequence RRIRARPPRLPRPRPRPALSPRP and give its recorded shrunken log2 fold change.
0.628

Consider the sequence RRIRHRPPRLPRPRPRPPTLPRP and give its recorded shrunken log2 fold change.
0.246

Consider the sequence RRIRPRPPRLPRPRPRPKPIPRP and give its recorded shrunken log2 fold change.
0.035

* * *

System: Escherichia coli TOP10
Test: shrunken log2 fold change of peptide-encoding DNA abundance (4.5 h post-induction vs induction); higher = less antimicrobial activity (less host growth inhibition)
Conditions: time post-induction: 4.5 h; library: site-saturation at positions 5, 18, 19, 20
# reported shrunken log2 fold change; entries follow
Just the number, please.

RRIRKRPPRLPRPRPRPYDGPRP = -0.0976
RRIRQRPPRLPRPRPRPYEHPRP = 0.00367
RRIRLRPPRLPRPRPRPIAYPRP = -0.0152

Next sequence, please.
State shrunken log2 fold change (Escherichia coli TOP10) of RRIRARPPRLPRPRPRPSDKPRP .
-0.197

* * *

System: Escherichia coli TOP10
Experiment: shrunken log2 fold change of peptide-encoding DNA abundance (4.5 h post-induction vs induction); higher = less antimicrobial activity (less host growth inhibition)
Conditions: time post-induction: 4.5 h; library: site-saturation at positions 5, 18, 19, 20
Consider the reported shrunken log2 fold change of an entry and match it to a band in group A = under -0.2, group B = from -0.2 up to -0.006, group C = -0.006 and over

Before answering, review these 5 worked examples.
RRIRRRPPRLPRPRPRPHSSPRP = group B
RRIRRRPPRLPRPRPRPACPPRP = group C
RRIRKRPPRLPRPRPRPTTKPRP = group B
RRIRPRPPRLPRPRPRPTELPRP = group B
RRIRFRPPRLPRPRPRPHIMPRP = group A

Exercise: read the entry RRIRGRPPRLPRPRPRPITSPRP and state which class it falls under.
group C

Exercise: read the entry RRIRCRPPRLPRPRPRPIDHPRP and state which class it falls under.
group A

Exercise: read the entry RRIRIRPPRLPRPRPRPGSLPRP and state which class it falls under.
group A

Exercise: read the entry RRIRTRPPRLPRPRPRPWVQPRP and state which class it falls under.
group B

Exercise: read the entry RRIRTRPPRLPRPRPRPVDSPRP and state which class it falls under.
group C

* * *

System: Escherichia coli TOP10
Experiment: shrunken log2 fold change of peptide-encoding DNA abundance (4.5 h post-induction vs induction); higher = less antimicrobial activity (less host growth inhibition)
Settings: time post-induction: 4.5 h; library: site-saturation at positions 5, 18, 19, 20
# reported shrunken log2 fold change; entries follow
Just the number, please.

RRIRRRPPRLPRPRPRPIVYPRP = -0.00893
RRIRDRPPRLPRPRPRPTASPRP = 0.381
RRIRYRPPRLPRPRPRPDVPPRP = -0.0784
RRIRNRPPRLPRPRPRPCMDPRP = -0.129
RRIRTRPPRLPRPRPRPNHTPRP = -0.312
RRIRNRPPRLPRPRPRPNMCPRP = -0.0592

Next sequence, please.
State shrunken log2 fold change (Escherichia coli TOP10) of RRIRFRPPRLPRPRPRPAKFPRP .
-0.265

* * *

# reported shrunken log2 fold change; entries follow
System: Escherichia coli TOP10
Assay: shrunken log2 fold change of peptide-encoding DNA abundance (4.5 h post-induction vs induction); higher = less antimicrobial activity (less host growth inhibition)
Conditions: time post-induction: 4.5 h; library: site-saturation at positions 5, 18, 19, 20

RRIRIRPPRLPRPRPRPPSYPRP = -0.336
RRIRRRPPRLPRPRPRPQDEPRP = -0.0204
RRIRQRPPRLPRPRPRPSRLPRP = 0.101

State shrunken log2 fold change (Escherichia coli TOP10) of RRIRGRPPRLPRPRPRPNGWPRP .
0.477

State shrunken log2 fold change (Escherichia coli TOP10) of RRIRERPPRLPRPRPRPWPPPRP .
0.045

State shrunken log2 fold change (Escherichia coli TOP10) of RRIRCRPPRLPRPRPRPQAPPRP .
0.211

State shrunken log2 fold change (Escherichia coli TOP10) of RRIRNRPPRLPRPRPRPAMPPRP .
0.236

State shrunken log2 fold change (Escherichia coli TOP10) of RRIRGRPPRLPRPRPRPCKLPRP .
-0.378

State shrunken log2 fold change (Escherichia coli TOP10) of RRIRDRPPRLPRPRPRPSCFPRP .
0.126

* * *

System: Escherichia coli TOP10;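 also: peptides expressed intracellularly from a pBAD plasmid library in pooled LB shake-flask culture, induced with 0.3% L-arabinose, DNA abundance read by NGS, three biological replicates, DESeq2 with apeglm shrinkage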
Assay: shrunken log2 fold change of peptide-encoding DNA abundance (4.5 h post-induction vs induction); higher = less antimicrobial activity (less host growth inhibition)
Settings: time post-induction: 4.5 h; library: site-saturation at positions 5, 18, 19, 20
shrunken log2 fold change of 0.01 or higher: Satisfied. Under 0.01: Not satisfied.

Before answering, review these 4 worked examples.
RRIRCRPPRLPRPRPRPANIPRP = Not satisfied
RRIRNRPPRLPRPRPRPNHSPRP = Not satisfied
RRIRYRPPRLPRPRPRPKRRPRP = Satisfied
RRIRDRPPRLPRPRPRPMEAPRP = Not satisfied

Is the recorded value of shrunken log2 fold change equal to or greater than 0.01 for this sequence? RRIRNRPPRLPRPRPRPPDHPRP
Satisfied

Is the recorded value of shrunken log2 fold change equal to or greater than 0.01 for this sequence? RRIRRRPPRLPRPRPRPIPMPRP
Satisfied

Is the recorded value of shrunken log2 fold change equal to or greater than 0.01 for this sequence? RRIRARPPRLPRPRPRPTADPRP
Satisfied

Is the recorded value of shrunken log2 fold change equal to or greater than 0.01 for this sequence? RRIRWRPPRLPRPRPRPSTGPRP
Not satisfied

Is the recorded value of shrunken log2 fold change equal to or greater than 0.01 for this sequence? RRIRWRPPRLPRPRPRPNMGPRP
Not satisfied

Is the recorded value of shrunken log2 fold change equal to or greater than 0.01 for this sequence? RRIRVRPPRLPRPRPRPDAGPRP
Satisfied

Is the recorded value of shrunken log2 fold change equal to or greater than 0.01 for this sequence? RRIRQRPPRLPRPRPRPTTGPRP
Satisfied
